- test.target: Man(b1-4)GlcNAc
- assay.notes: glycan array binding signal (z-score within array); higher = stronger binding
- run.parameters: glycan notation: IUPAC condensed, linker removed
The full list was thinned out, with the strongest signals kept by preference.
outcome.measure: glycan array binding signal (z-score)
Number only, no unit.

Illustrative cases are given below, each with its answer.
- binder: "Malectin (Xenopus laevis), Q6INX3 (protein) SGLADKVIWAVNAGGESHVDVHGIHYRKDPLEGRVGRASDYGMKLPILRSNPEDQVLYQTERYNEDSFGYDIPIKEEGEYVLVLKFAEVYFAQSQQKVFDVRVNGHTVVKDLDIFDRVGHSTAHDEIIPISIKKGKLSVQGEVSTFTGKLSVEFVKGYYDNPKVCALFIMKGTADDVPMLQPHPGLE"
  quantitative.result: -0.075
- binder: "TbCVNHOa (Tuber borchii), Q5MK11 (protein) MSYADSSRNAVLTNGGRTLRAECRNADGNWVTSELDLDTCIGNPNGFLGWGMQNFSHSSEDIKLEEGGRKLTCRPKTVDGGFRERQGIDLNRIQNVNGRLVFQ"
  quantitative.result: -0.533

Annotate the binder MGL6A (Homo sapiens) (protein) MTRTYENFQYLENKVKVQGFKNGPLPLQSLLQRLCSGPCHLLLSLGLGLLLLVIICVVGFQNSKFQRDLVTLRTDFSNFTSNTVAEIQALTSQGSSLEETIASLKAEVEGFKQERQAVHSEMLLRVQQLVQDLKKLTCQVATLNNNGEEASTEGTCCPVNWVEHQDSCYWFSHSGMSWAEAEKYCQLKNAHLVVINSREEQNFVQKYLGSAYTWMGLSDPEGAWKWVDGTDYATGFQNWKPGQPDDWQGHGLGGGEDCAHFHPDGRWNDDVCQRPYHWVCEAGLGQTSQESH with its measured glycan array binding signal (z-score).
-0.258

The reported measurements were obtained from the supplement of paper PMC8728848.
